system: morningglory (Ipomea lacunosa or Ipomea hederacea); assay: Preemergence herbicidal activity, morningglory; assay type: in vivo; settings: Rate of Application 0.3 Kg/Ha, examined after 12-17 days
Endpoint Label: PREEMERGENCE HERBICIDAL ACTIVITY (% CONTROL) IPOSS (%)

Compound	Assay Target	Unit Annotation	Measured Number
Cn1c(C(F)(F)F)cc(=O)n(-c2c(F)cc(Cl)c3nc(COc4ccccc4)[nH]c23)c1=O	morningglory (Ipomea lacunosa or Ipomea hederacea)	%	100
CC(OC(=O)NCc1ccccc1)c1cc2c(Cl)cc(F)c(-n3c(=O)cc(C(F)(F)F)n(C)c3=O)c2o1 (stereo not drawn)	morningglory (Ipomea lacunosa or Ipomea hederacea)	%	100
Cn1c(C(F)(F)F)cc(=O)n(-c2ccc(Cl)c3cc(C(=O)O)oc23)c1=O	morningglory (Ipomea lacunosa or Ipomea hederacea)	%	70
C=C(C)c1cc2c(Cl)cc(F)c(-n3c(=O)cc(C(F)(F)F)n(C)c3=O)c2o1	morningglory (Ipomea lacunosa or Ipomea hederacea)	%	100
CCOC(OCC)c1cc2c(Cl)cc(F)c(-n3c(=O)cc(C(F)(F)F)n(C)c3=O)c2o1	morningglory (Ipomea lacunosa or Ipomea hederacea)	%	100
Cc1cc2c(Cl)ccc(-n3c(=O)cc(C(F)(F)F)n(C)c3=O)c2o1	morningglory (Ipomea lacunosa or Ipomea hederacea)	%	100
Cn1c(C(F)(F)F)cc(=O)n(-c2ccc(Cl)c3cc(NC(=O)OC(C)(C)C)oc23)c1=O	morningglory (Ipomea lacunosa or Ipomea hederacea)	%	70
CCOC(=O)c1cc2c(Cl)ccc(-n3c(=O)cc(C(F)(F)F)n(C)c3=O)c2o1	morningglory (Ipomea lacunosa or Ipomea hederacea)	%	95
COCOC(C)(C)c1cc2c(Cl)cc(F)c(-n3c(=O)cc(C(F)(F)F)n(C)c3=O)c2o1	morningglory (Ipomea lacunosa or Ipomea hederacea)	%	100

* * *

Tested on: wheat (Triticum aestivum var. Lew)
Assay: Postemergence herbicidal activity, wheat
Format: in vivo
Conditions: rate of application 0.3 Kg/Ha, rated after 12-17 days
Method: The benzofused heterocyclic compounds of this invention were tested for pre- and postemergence herbicidal activity using a variety of crops and weeds. […] The preemergence flats were initially subjected to a light water spray. […] After 12-17 days the plants were examined and the phytotoxicity data were recorded. […]
In this section we review reported Postemergence herbicidal activity (% control) WHT values for a set of compounds.
Endpoint Label: Postemergence herbicidal activity (% control) WHT (%)

Compound Smiles	Measured Number
Cn1c(C(F)(F)F)cc(=O)n(-c2c(F)cc(Cl)c3nc(COc4ccccc4)[nH]c23)c1=O	40
CC(=O)N(C(C)=O)c1nc2c(-n3c(=O)cc(C(F)(F)F)n(C)c3=O)c(F)cc(Br)c2o1	40
CCOC(=O)c1cc2c(-n3c(=O)cc(C(F)(F)F)n(C)c3=O)c(F)cc(Cl)c2[nH]1	60
Cn1c(C(F)(F)F)cc(=O)n(-c2ccc(Cl)c3cc(C(=O)O)oc23)c1=O	40
Cn1c(C(F)(F)F)cc(=O)n(-c2ccc(Cl)c3cc(C=NO)oc23)c1=O	30
C=Cc1cc2c(Cl)cc(F)c(-n3c(=O)cc(C(F)(F)F)n(C)c3=O)c2o1	40
Cn1c(C(F)(F)F)cc(=O)n(-c2c(F)cc(Cl)c3nc(CCc4ccccc4)[nH]c23)c1=O	80
Cn1c(C(F)(F)F)cc(=O)n(-c2c(F)cc(Cl)c3cc(CCF)oc23)c1=O	95
CCc1nc2c(-n3c(=O)cc(C(F)(F)F)n(C)c3=O)c(F)cc(Cl)c2o1	80
CNC(=O)c1cc2c(Cl)ccc(-n3c(=O)cc(C(F)(F)F)n(C)c3=O)c2o1	40
CN(C)C(=O)c1cc2c(Cl)cc(F)c(-n3c(=O)cc(C(F)(F)F)n(C)c3=O)c2o1	70
Cn1c(C(F)(F)F)cc(=O)n(-c2c(F)cc(Cl)c3[nH]c(C(F)F)nc23)c1=O	40
Cn1c(C(F)(F)F)cc(=O)n(-c2ccc(Cl)c3cc(C(N)=O)oc23)c1=O	40
Cn1c(C(F)(F)F)cc(=O)n(-c2ccc(Cl)c3cc(NC(=O)OC(C)(C)C)oc23)c1=O	30
Cn1c(C(F)(F)F)cc(=O)n(-c2c(F)cc(Cl)c3[nH]c(C4CCCCC4)nc23)c1=O	80
COCc1nc2c(-n3c(=O)cc(C(F)(F)F)n(C)c3=O)c(F)cc(Br)c2o1	90
C=C(C)c1cc2c(Cl)cc(F)c(-n3c(=O)cc(C(F)(F)F)n(C)c3=O)c2o1	70
